// data source = patent US7741341B2

Biological target: human factor Xa (Homo sapiens, UniProt P00742)
Sequence (P00742 235-488 limits assumed): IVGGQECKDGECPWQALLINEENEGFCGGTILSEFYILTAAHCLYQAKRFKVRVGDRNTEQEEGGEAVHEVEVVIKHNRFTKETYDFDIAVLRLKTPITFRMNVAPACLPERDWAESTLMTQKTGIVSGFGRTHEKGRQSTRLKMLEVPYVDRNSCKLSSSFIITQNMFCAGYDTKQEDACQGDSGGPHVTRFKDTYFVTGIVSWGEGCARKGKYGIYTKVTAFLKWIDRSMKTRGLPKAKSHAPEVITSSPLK
Sequence (P00742 41-179 partner limits assumed): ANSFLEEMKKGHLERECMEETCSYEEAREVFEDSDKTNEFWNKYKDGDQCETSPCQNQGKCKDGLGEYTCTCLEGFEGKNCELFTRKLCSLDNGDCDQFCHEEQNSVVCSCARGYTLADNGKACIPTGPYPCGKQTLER
pKi: −log10 of the molar value.
# pKi >= 8 gives yes (1), anything below gives no (0)

1. CC(C)N1CCC(NC(=O)c2nc3c(C(=O)N4CCC(O)CC4)cccc3n2Cc2cc(-c3ccc(Cl)s3)on2)CC1 | no (0)
2. CC(C)N1CCC(NC(=O)c2nc3c(C(=O)NCCO)scc3n2Cc2cc(-c3ccc(Cl)s3)on2)CC1 | yes (1)
3. CC(C)N1CCC(NC(=O)c2nc3ccccc3n2CC(=O)Nc2ccc(Cl)cn2)CC1 | yes (1)
4. O=C(Cn1c(C(=O)Nc2ccc(N3CCNCC3=O)cc2)nc2ccccc21)Nc1ccc(Cl)cn1 | no (0)
5. CC(C)N1CCC(NC(=O)c2nc3cc(C(=O)N(C)CCO)ccc3n2Cc2cc(-c3ccc(Cl)s3)on2)CC1 | no (0)
6. CC(OC(=O)OC1CCCCC1)OC(=O)c1ccc2c(c1)nc(C(=O)NC1CCN(C(C)C)CC1)n2Cc1cc(-c2ccc(Cl)s2)on1 (stereo not shown) | no (0)
